Read-out: Urokinase-type plasminogen activator receptor (uPAR), PLAUR (gene 5329)
protocol_summary: BSK_CASM3C_uPAR: BioMAP Diversity Plus: CASM3C Assay for Urokinase-type plasminogen activator receptor (uPAR) Biomarker Activity (AID 2283054);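 also: cell-surface uPAR protein level quantified by ELISA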
assay_setup: primary human coronary artery smooth muscle cells; actives raise or lower the signal
Calls of active or inactive are those of the source. The calls were made as follows: active = hit-call score of the fitted dose curve at least 0.9, where 1 is the maximum; inactive = score below 0.9.

compound: CCCCCCCCCCCCCCCC(=O)OC/C=C(C)/C=C/C=C(C)/C=C/C1=C(C)CCCC1(C)C
AC50: inactive

compound: CSCCC=O
AC50: inactive

compound: C=C(C)C(=O)OCCOCCOCCOC(=O)C(=C)C
AC50: inactive

compound: C=C(C)C(=O)OCC(CC)(COC(=O)C(=C)C)COC(=O)C(=C)C
AC50: inactive

compound: CCCCOC(=O)CCCCCCCC(=O)OCCCC
AC50: inactive

compound: C=C(C)C(=O)OCCOCCOCCOCCOC(=O)C(=C)C
AC50: inactive

compound: CCC(C)c1cc([N+](=O)[O-])cc([N+](=O)[O-])c1OC(=O)OC(C)C (stereo unspecified)
AC50: 24.3 µM (active)

compound: c1ccc(CCc2ccccc2)cc1
AC50: 31.9 µM (active)

compound: C[C@@H]1CCN(C(=O)[C@H](CCCN=C(N)N)NS(=O)(=O)c2cccc3c2NC[C@H](C)C3)[C@@H](C(=O)O)C1
AC50: inactive

compound: c1ccc2cc(Nc3ccc(Nc4ccc5ccccc5c4)cc3)ccc2c1
AC50: inactive

compound: O=C1c2ccccc2C(=O)c2c(O)ccc(O)c21
AC50: 4.99 µM (active)

* * *

protocol_summary: BSK_4H_Eotaxin3: BioMAP Diversity Plus: 4H Assay for Eotaxin 3 Biomarker Activity (AID 2283000)
assay_setup: primary human endothelial cells (HUVEC); actives raise or lower the signal
The source made the active and inactive calls. How the source made its calls: active means hit-call score of the fitted dose curve at least 0.9, where 1 is the maximum; inactive means score below 0.9.
Possible outcomes: YES = active, NO = inactive

structure_notation: c1ccc2cc(Nc3ccc(Nc4ccc5ccccc5c4)cc3)ccc2c1
qualitative_label: NO
--
structure_notation: C=C(C)C(=O)OCC(CC)(COC(=O)C(=C)C)COC(=O)C(=C)C
qualitative_label: NO
--
structure_notation: CC(C)(C)CC(C)(C)c1ccc(OCCOCC[N+](C)(C)Cc2ccccc2)cc1
qualitative_label: YES
--
structure_notation: COc1cc(Cl)c(OC)cc1N
qualitative_label: NO
--
structure_notation: CC(C)(N=C=O)c1cccc(C(C)(C)N=C=O)c1
qualitative_label: NO
--
structure_notation: C=C(C)C(=O)OCCOCCOCCOCCOC(=O)C(=C)C
qualitative_label: NO
--
structure_notation: CC(=O)Nc1ccc(C(=O)CCl)cc1
qualitative_label: YES

* * *

protocol_summary: ATG_FoxO_CIS: Attagene CIS-FACTORIAL HepG2 Assay for human Forkhead box O (FoxO) (AID 2282943)
assay_setup: HepG2 Attagene cis-reporter, FoxO element, mRNA; actives raise or lower the signal
Active and inactive are the calls of the source. The calls were made as follows: active = hit-call score of the fitted dose curve at least 0.9, where 1 is the maximum; inactive = score below 0.9.
Possible outcomes: active, inactive

compound: C/C=C(\C)C(=O)OCCc1ccccc1
qualitative_label: inactive
//
compound: CCCCCCOCCOCCO
qualitative_label: inactive
//
compound: CC1(C)C2=CCCC(C)(C)[C@]23CC[C@H]1C3
qualitative_label: inactive
//
compound: CCCCCCCCCCCCCCN(CCO)CCO
qualitative_label: inactive
//
compound: O=C(Nc1ccc([N+](=O)[O-])cc1)Nc1ccc([N+](=O)[O-])cc1 (tested in a mixture with another compound)
qualitative_label: inactive
//
compound: CCCCCCCCCCCC(=O)OCC(O)CO (stereo unspecified)
qualitative_label: inactive
//
compound: CC1=NN(c2ccc(S(=O)(=O)O)cc2)C(=O)C1
qualitative_label: inactive
//
compound: CC(=O)c1ccccn1
qualitative_label: inactive
//
compound: CCC(Cl)C(Cl)C(Cl)CC(Cl)C(Cl)C(C)Cl (stereo unspecified)
qualitative_label: inactive
//
compound: CCCCCCCC(=O)OCCCCCC
qualitative_label: inactive
//
compound: C=C(C)C(=O)OCCOCCOCCOC(=O)C(=C)C
qualitative_label: inactive
//
compound: CCCCCCCCSCCO
qualitative_label: inactive
//
compound: NC(=S)NNC(N)=S
qualitative_label: inactive
//
compound: CCOc1ccc(NC(=O)CC(C)O)cc1 (stereo unspecified)
qualitative_label: inactive
//
compound: O=C(O)c1cc(C(=O)O)cc([N+](=O)[O-])c1
qualitative_label: inactive
//
compound: CC(C)CCCCCCCCCCCCCCC(=O)O
qualitative_label: inactive
//
compound: CN(c1nccc(=O)[nH]1)C1CCN(c2nc3ccccc3n2Cc2ccc(F)cc2)CC1
qualitative_label: inactive
//
compound: NCc1ccco1
qualitative_label: inactive
//
compound: [O-]n1ccccc1=S.[O-]n1ccccc1=S.[Zn+2]
qualitative_label: inactive
//
compound: C=C(CC(=O)O)C(=O)O
qualitative_label: inactive
//
compound: Nc1ccn([C@H]2CS[C@@H](CO)O2)c(=O)n1
qualitative_label: inactive
//
compound: CC(C)CCOC(=O)c1ccccc1
qualitative_label: inactive
//
compound: CCCCCCC(CO)CCCC (stereo unspecified)
qualitative_label: inactive
//
compound: O=C1c2ccccc2C(=O)c2c(O)ccc(O)c21
qualitative_label: inactive
//
compound: O=C(O)CCCCCCCCC(=O)O
qualitative_label: inactive
//
compound: C=C1C[C@]23C[C@@]1(O)CC[C@H]2[C@@]12C=C[C@H](O)[C@@](C)(C(=O)O1)[C@H]2[C@@H]3C(=O)O
qualitative_label: inactive
//
compound: O=C1OC[C@H](Cc2cccc(O)c2)[C@H]1Cc1cccc(O)c1
qualitative_label: inactive
//
compound: CS(C)=O
qualitative_label: inactive
//
compound: CCC(=O)O[C@@H]1C[C@H]2CC[C@]1(C)C2(C)C
qualitative_label: inactive
//
compound: OCc1ccc(Cl)cc1Cl
qualitative_label: inactive
//
compound: CC(C)=CCCC(C)CC(=O)O (stereo unspecified)
qualitative_label: inactive
//
compound: CCOCCOCCOCC
qualitative_label: inactive
//
compound: CCCOC(=O)c1c(Cl)c(Cl)c(Cl)c(Cl)c1C(=O)OCCC
qualitative_label: inactive
//
compound: C1CCOC1
qualitative_label: inactive
//
compound: CCc1cc(C(C)(C)C)c(O)c(C(C)(C)C)c1
qualitative_label: inactive
//
compound: Cc1ccc(S(N)(=O)=O)cc1
qualitative_label: inactive
//
compound: C#CC(C)N(C)C(=O)Nc1ccc(Cl)cc1 (stereo unspecified)
qualitative_label: inactive
//
compound: O=[N+]([O-])c1ccc(O)cc1C(F)(F)F
qualitative_label: inactive
//
compound: C=C(C)C(=O)OCCOCCOCCOCCOC(=O)C(=C)C
qualitative_label: inactive
//
compound: Oc1c(Cl)cc(Cl)c(Cl)c1Cc1c(O)c(Cl)cc(Cl)c1Cl
qualitative_label: inactive
//
compound: C1=CC2C3C=CC(C3)C2C1 (stereo unspecified)
qualitative_label: inactive
//
compound: Nc1c(Cl)cc(Cl)cc1[N+](=O)[O-]
qualitative_label: inactive
//
compound: CCOC(=O)C(C#N)=C(c1ccccc1)c1ccccc1
qualitative_label: inactive
//
compound: IC(I)I
qualitative_label: inactive
//
compound: CC(=O)C1(C)CC2=C(CCCC2(C)C)CC1C (stereo unspecified)
qualitative_label: active
//
compound: CC(C)(C)OC(=O)c1ccc(O)cc1
qualitative_label: inactive
//
compound: O=Cc1ccccc1S(=O)(=O)O
qualitative_label: inactive
//
compound: CC=Cc1ccc(OC)c(OC)c1
qualitative_label: inactive
//
compound: C=CC(C)C#N (stereo unspecified)
qualitative_label: inactive
//
compound: CC=CC=CCOC(=O)C(C)C
qualitative_label: inactive
//
compound: Brc1ccc(Br)c(Br)c1
qualitative_label: inactive
//
compound: Cc1[nH]c(=O)c(C#N)cc1-c1ccncc1
qualitative_label: inactive
//
compound: CCOC(=O)c1ccc(N)cc1
qualitative_label: inactive
//
compound: O=C(Nc1ccc2c(O)c(N=Nc3ccc(N=Nc4ccc(S(=O)(=O)O)cc4)cc3)c(S(=O)(=O)O)cc2c1)c1ccccc1
qualitative_label: inactive
//
compound: CCOC(=O)COC(=O)c1cc(Oc2ccc(C(F)(F)F)cc2Cl)ccc1[N+](=O)[O-]
qualitative_label: inactive
//
compound: Clc1cc(Cl)c(-c2c(Cl)c(Cl)cc(Cl)c2Cl)cc1Cl
qualitative_label: inactive

* * *

protocol_summary: CEETOX_H295R_MTT_cell_viability: Viability Assessment in the CeeTox HT-H295R MTT Assay (AID 2283718);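 as to AC50: curve fitted both ways so AC50 may mark viability loss or gain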
Calls of active or inactive are those of the source. How the source made its calls: active means hit-call score of the fitted dose curve at least 0.9, where 1 is the maximum; inactive means score below 0.9.

compound: C=C1CC[C@H](O)C/C1=C/C=C1\CCC[C@]2(C)[C@@H]([C@H](C)/C=C/[C@H](C)C(C)C)CC[C@@H]12
AC50: 83400 nM (active)

compound: C=C[Si]1(C)O[Si](C)(C=C)O[Si](C)(C=C)O[Si](C)(C=C)O1 (centres undefined)
AC50: inactive

compound: Nc1ccc(N)c2c1C(=O)c1ccccc1C2=O
AC50: inactive

compound: CC1(C)C(=O)N(Cl)C(=O)N1Br
AC50: inactive

compound: CCCCCCCCN1CCCC1=O
AC50: 882 nM (active)

compound: CCC(C)c1cc([N+](=O)[O-])cc([N+](=O)[O-])c1OC(=O)OC(C)C (centres undefined)
AC50: inactive

compound: O=C(Nc1ccc2c(O)c(N=Nc3ccc(N=Nc4ccc(S(=O)(=O)O)cc4)cc3)c(S(=O)(=O)O)cc2c1)c1ccccc1
AC50: inactive

compound: CC=Cc1ccc(OCC)c(O)c1
AC50: inactive

compound: CCOC(=O)[C@@H](C)Oc1ccc(Oc2nc3ccc(Cl)cc3o2)cc1
AC50: inactive

compound: BrCc1cccc(Oc2ccccc2)c1
AC50: inactive

compound: CC=Cc1ccc(OC)c(OC)c1
AC50: inactive

compound: COc1ccc(N=Nc2cc(C)c(N=Nc3ccc(S(=O)(=O)O)cc3)cc2OC)cc1
AC50: inactive

compound: CC(CN=Cc1ccccc1O)N=Cc1ccccc1O (centres undefined)
AC50: 2570 nM (active)

compound: OCc1cccc(Oc2ccccc2)c1
AC50: inactive
